Data provenance is IntAct's records for PubMed 29039417.

B1: Protein PTHB1 (Homo sapiens), Q3SYG4 (parent)
chain: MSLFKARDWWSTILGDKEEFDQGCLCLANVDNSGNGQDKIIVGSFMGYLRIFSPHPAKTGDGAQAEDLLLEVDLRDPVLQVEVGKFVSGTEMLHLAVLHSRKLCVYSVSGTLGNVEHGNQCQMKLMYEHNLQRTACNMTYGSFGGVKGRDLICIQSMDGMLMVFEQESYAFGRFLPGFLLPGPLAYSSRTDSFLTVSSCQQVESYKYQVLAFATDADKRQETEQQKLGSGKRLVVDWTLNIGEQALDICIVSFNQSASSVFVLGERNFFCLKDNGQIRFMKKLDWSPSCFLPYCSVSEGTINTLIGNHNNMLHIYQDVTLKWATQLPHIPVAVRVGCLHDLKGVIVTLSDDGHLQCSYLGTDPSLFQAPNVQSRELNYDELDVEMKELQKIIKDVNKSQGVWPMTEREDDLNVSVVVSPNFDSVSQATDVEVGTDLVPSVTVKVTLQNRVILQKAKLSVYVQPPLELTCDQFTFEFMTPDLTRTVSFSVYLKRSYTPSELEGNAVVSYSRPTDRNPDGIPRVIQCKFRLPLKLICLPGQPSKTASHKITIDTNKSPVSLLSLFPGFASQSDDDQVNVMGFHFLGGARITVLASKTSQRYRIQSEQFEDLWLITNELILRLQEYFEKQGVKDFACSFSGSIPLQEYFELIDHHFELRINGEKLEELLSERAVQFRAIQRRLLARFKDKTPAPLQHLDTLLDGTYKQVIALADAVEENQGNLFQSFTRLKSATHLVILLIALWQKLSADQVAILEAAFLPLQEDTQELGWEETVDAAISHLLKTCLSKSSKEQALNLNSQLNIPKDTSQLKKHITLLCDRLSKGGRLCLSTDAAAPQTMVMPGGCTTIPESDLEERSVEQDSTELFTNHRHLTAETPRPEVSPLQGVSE
partner: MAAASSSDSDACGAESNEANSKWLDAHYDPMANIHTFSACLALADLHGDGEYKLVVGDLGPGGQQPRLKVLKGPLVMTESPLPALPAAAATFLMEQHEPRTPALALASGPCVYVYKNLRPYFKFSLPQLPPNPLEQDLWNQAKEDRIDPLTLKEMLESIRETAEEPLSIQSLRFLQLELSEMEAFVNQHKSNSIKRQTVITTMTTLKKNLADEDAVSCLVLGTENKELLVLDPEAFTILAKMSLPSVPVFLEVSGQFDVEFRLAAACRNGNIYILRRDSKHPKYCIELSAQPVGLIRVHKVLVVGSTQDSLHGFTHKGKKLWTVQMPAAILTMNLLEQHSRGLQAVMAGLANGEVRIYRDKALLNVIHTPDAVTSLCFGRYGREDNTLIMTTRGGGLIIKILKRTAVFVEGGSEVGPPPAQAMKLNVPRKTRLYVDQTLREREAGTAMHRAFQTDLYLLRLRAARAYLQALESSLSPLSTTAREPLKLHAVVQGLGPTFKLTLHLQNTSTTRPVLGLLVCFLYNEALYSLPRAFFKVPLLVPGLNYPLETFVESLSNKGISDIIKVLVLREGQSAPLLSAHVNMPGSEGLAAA

Variants of: B1
Conditions: with bbs1_human BBS1, Q8NFJ9
readout name: effect of a mutation on the interaction

Please review the entries below; each comes with its answer.
{"columns": ["mutation spec", "effect of a mutation on the interaction"],
 "data": [
  ["I534E", "with no effect"],
  ["Y703A", "with no effect"],
  ["P689K", "with no effect"],
  ["A746E", "with no effect"],
  ["R818A", "with no effect"],
  ["T613A", "with no effect"]
]}

Give one value of effect of a mutation on the interaction per listed variant.
1. N553E
2. N420K

1: with no effect; 2: with no effect

Give one value of effect of a mutation on the interaction per listed variant.
1. N420E
2. L695K

["with no effect", "with no effect"]
